Origin of the recorded values: the supplement of paper PMC11061612

# Tested on: SKN (Other Solid Carcinomas)
# Test Name: combination Emax (second highest fraction inhibited in the dose matrix, 72 h); higher = more inhibition; extreme values may be limits of the assay
Observable: combination Emax

Solved cases below.
Molecule	Meas Value
CS(=O)(=O)CCNCc1ccc(-c2ccc3ncnc(Nc4ccc(OCc5cccc(F)c5)c(Cl)c4)c3c2)o1 [Lapatinib] + Cn1cnc2c(F)c(Nc3ccc(Br)cc3Cl)c(C(=O)NOCCO)cc21 [Selumetinib] (first compound max 10 µM, 7x7, partner max 10 µM)	0.341
C[C@@H](c1ccc2nccn2c1)n1nnc2ncc(-c3cnn(C)c3)nc21 [Savolitinib] + CC1(C)CCC(CN2CCN(c3ccc(C(=O)NS(=O)(=O)c4ccc(NCC5CCOCC5)c([N+](=O)[O-])c4)c(Oc4cnc5[nH]ccc5c4)c3)CC2)=C(c2ccc(Cl)cc2)C1 [Venetoclax] (first compound max 1 µM, 7x7, partner max 1 µM)	0.169
CC(=O)c1c(C)c2cnc(Nc3ccc(N4CCNCC4)cn3)nc2n(C2CCCC2)c1=O [Palbociclib] + Cc1c2c(nn1C)CSCc1cc(n(C)n1)CSc1cc(c3ccccc3c1)OCCCc1c(C(=O)O)n(C)c3c-2c(Cl)ccc13 [AZD5991] (first compound max 10 µM, 7x7, partner max 1 µM)	0.385
NC1(C(=O)N[C@@H](CCO)c2ccc(Cl)cc2)CCN(c2ncnc3[nH]ccc23)CC1 [Capivasertib] + C[C@@H]1COCCN1C2=NC(=NC(=C2)C3(CC3)[S@](=N)(=O)C)C4=C5C=CNC5=NC=C4 [AZD6738] (first compound max 10 µM, 7x7, partner max 10 µM)	0.608
Cn1cnc2c(F)c(Nc3ccc(Br)cc3Cl)c(C(=O)NOCCO)cc21 [Selumetinib] + CC(C)n1c(=O)n(C)c2cnc3cc(F)c(-c4ccc(OCCCN5CCCCC5)nc4)cc3c21 [AZD1390] (first compound max 10 µM, 7x7, partner max 0.3 µM)	0.113

The reported value for Cc1cc2ncnn2cc1Nc1ncc2c(n1)n(C1CCOCC1)c(=O)n2C [AZD7648] + C[C@@H]1COCCN1C2=NC(=NC(=C2)C3(CC3)[S@](=N)(=O)C)C4=C5C=CNC5=NC=C4 [AZD6738] (first compound max 10 µM, 7x7, partner max 10 µM) in terms of combination Emax is 0.47

Note to self: combination Emax recorded for COc1nnc2ccc(N3CCC(c4ccc(OCCN5CCN(C)C(=O)[C@H]5C)cc4)CC3)nn12 [AZD5153] + Cc1c2c(nn1C)CSCc1cc(n(C)n1)CSc1cc(c3ccccc3c1)OCCCc1c(C(=O)O)n(C)c3c-2c(Cl)ccc13 [AZD5991] (first compound max 1 µM, 7x7, partner max 1 µM) was 0.568

Lab note: measured combination Emax of CN(CCO)CC[C@H](CSc1ccccc1)Nc1ccc(S(=O)(=O)NC(=O)c2ccc(N3CCC([C@@H](O)c4ccccc4-c4ccc(Cl)cc4)CC3)cc2)cc1S(=O)(=O)C(F)(F)F [AZD4320] + CC(=O)O[C@H]1C(=O)[C@@]2(C)[C@H]([C@H](OC(=O)c3ccccc3)[C@]3(O)C[C@H](OC(=O)[C@H](O)[C@@H](NC(=O)c4ccccc4)c4ccccc4)C(C)=C1C3(C)C)[C@]1(OC(C)=O)CO[C@@H]1C[C@@H]2O [Paclitaxel] (first compound max 1 µM, 7x7, partner max 3 µM) was 0.978

get_value(item= COc1nnc2ccc(N3CCC(c4ccc(OCCN5CCN(C)C(=O)[C@H]5C)cc4)CC3)nn12 [AZD5153] + CC1(C)CCC(CN2CCN(c3ccc(C(=O)NS(=O)(=O)c4ccc(NCC5CCOCC5)c([N+](=O)[O-])c4)c(Oc4cnc5[nH]ccc5c4)c3)CC2)=C(c2ccc(Cl)cc2)C1 [Venetoclax] (first compound max 1 µM, 7x7, partner max 1 µM) , readout=combination Emax) returns 0.594
